Each entry below carries its recorded residual activity.
target: SYK (human) (UniProt P43405); assay: radiometric filter-binding kinase assay, Kinase HotSpot; details: compound 0.5 µM; ATP 10 µM
Numeric answer only, unit % assumed.

Example cases with answers are listed next.
compound: O=C1NC(=O)/C(=C\c2ccc3nccnc3c2)S1
residual activity / %: 98

compound: O=C1Nc2ccccc2/C1=C1\Nc2ccccc2\C1=N/O
residual activity / %: 58.5

compound: CCn1cnc2c(Nc3cccc(Cl)c3)nc(N[C@@H]3CCCC[C@@H]3N)nc21
residual activity / %: 98.4

compound: Nc1nccc(-c2c(-c3ccc(F)cc3)ncn2C2CCNCC2)n1
residual activity / %: 98

Task: # get_value(readout='residual activity', item= CC(=O)O/N=C1\C(=C2\C(=O)Nc3cc(Br)ccc32)Nc2ccccc21 )
Result: 88.3

Task: # get_value(readout='residual activity', item= Cc1nc2cc3nc(-c4cccs4)cnc3cc2n1C )
Result: 94.3

Task: # get_value(readout='residual activity', item= Cn1cnc2cc3c(Nc4cccc(Br)c4)ncnc3cc21 )
Result: 98.5

====

molecular target: CDK4 CCND3 (human) (UniProt P30281+P11802); experiment: radiometric filter-binding kinase assay, Kinase HotSpot; conditions: compound 0.5 µM; ATP 10 µM
Sequence (P11802 whole entry, looked up): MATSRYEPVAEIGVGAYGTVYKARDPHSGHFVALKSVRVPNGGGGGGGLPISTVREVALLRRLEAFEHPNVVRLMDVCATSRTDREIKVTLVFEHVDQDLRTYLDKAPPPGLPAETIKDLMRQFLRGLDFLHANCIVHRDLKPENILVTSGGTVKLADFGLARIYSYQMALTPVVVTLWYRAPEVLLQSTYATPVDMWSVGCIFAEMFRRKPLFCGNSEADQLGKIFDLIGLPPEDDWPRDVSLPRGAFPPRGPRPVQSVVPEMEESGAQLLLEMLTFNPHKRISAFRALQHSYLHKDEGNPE
Sequence (P30281 whole entry, looked up): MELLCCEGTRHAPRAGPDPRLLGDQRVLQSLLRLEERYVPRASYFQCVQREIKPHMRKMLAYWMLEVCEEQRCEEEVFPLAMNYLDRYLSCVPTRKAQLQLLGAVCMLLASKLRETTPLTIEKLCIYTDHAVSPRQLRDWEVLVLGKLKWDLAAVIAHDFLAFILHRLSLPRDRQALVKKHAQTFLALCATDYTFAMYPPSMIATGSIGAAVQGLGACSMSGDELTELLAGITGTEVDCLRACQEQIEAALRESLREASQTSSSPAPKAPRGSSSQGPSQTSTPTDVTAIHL
experimental.readout: residual activity (%)
Numeric answer only, unit % assumed.

smi: COc1cc2ncc(-c3ccccc3)nc2cc1OC
experimental.readout: residual activity
number: 97.5

smi: COc1ccc(CNC(=O)Nc2ncc([N+](=O)[O-])s2)cc1
experimental.readout: residual activity
number: 94.4

smi: CC(C)c1nn(-c2c(Cl)cccc2Cl)c2nc(Cc3ccc(OCCO)cc3)nc(O)c12
experimental.readout: residual activity
number: 45.6

smi: Nc1nccc(-c2c(-c3ccc(F)cc3)ncn2C2CCNCC2)n1
experimental.readout: residual activity
number: 104

smi: Cn1cnc2cc3c(Nc4cccc(Br)c4)ncnc3cc21
experimental.readout: residual activity
number: 95.9

smi: c1cc(-c2cnn3cc(-c4ccc(OCCN5CCCCC5)cc4)cnc23)ccn1
experimental.readout: residual activity
number: 60.7

Task: # get_value(readout='residual activity', item= Oc1ccc(Nc2nc(-c3ccc(Cl)cc3)cs2)cc1 )
Result: 108

====

target: DYRK3 (human); assay: radiometric filter-binding kinase assay, Kinase HotSpot; settings: compound 0.5 µM; ATP 10 µM
experimental.readout: residual activity (%)
Numeric answer only, unit % assumed.

Example cases with answers are listed next.
molecule: O=C1NC(=O)/C(=C\c2ccc3nccnc3c2)S1
unit: %
residual activity: 71.5
//
molecule: CCn1cnc2c(Nc3cccc(Cl)c3)nc(N[C@@H]3CCCC[C@@H]3N)nc21
unit: %
residual activity: 83.7
//
molecule: O=C1Nc2ccccc2/C1=C1/Nc2ccccc2/C1=N\OCCC(O)CO (stereo unspecified)
unit: %
residual activity: 105
//
molecule: CC(C)c1nn(-c2c(Cl)cccc2Cl)c2nc(Cc3ccc(OCCO)cc3)nc(O)c12
unit: %
residual activity: 99
//
molecule: Cn1sc(=O)n(Cc2ccccc2)c1=O
unit: %
residual activity: 108

Could you now consider this next molecule?
Task: # get_value(readout='residual activity', item= Cn1nc2c3c(cccc31)C(=O)c1ccccc1-2 )
Result: 129

====

molecular target: TSSK1B (human); assay: radiometric filter-binding kinase assay, Kinase HotSpot; conditions: compound 0.5 µM; ATP 10 µM
experimental.readout: residual activity (%)
Numeric answer only, unit % assumed.

Task: Form: Entry = COc1cc2ncc(-c3ccccc3)nc2cc1OC | System = TSSK1B (human) | residual activity = ____
Result: 94.5

Task: Form: Entry = Cn1cnc2cc3c(Nc4cccc(Br)c4)ncnc3cc21 | System = TSSK1B (human) | residual activity = ____
Result: 104

Task: Form: Entry = O=C(Nc1cccc(Nc2cc(Nc3cccc(C(F)(F)F)c3)ncn2)c1)C1CC1 | System = TSSK1B (human) | residual activity = ____
Result: 104

Task: Form: Entry = O=C1NC(=O)/C(=C\c2ccc3nccnc3c2)S1 | System = TSSK1B (human) | residual activity = ____
Result: 78.6

Task: Form: Entry = O=C1NC(=O)C(c2c[nH]c3ccccc23)=C1c1c[nH]c2ccccc12 | System = TSSK1B (human) | residual activity = ____
Result: 106

Task: Form: Entry = CCn1cnc2c(Nc3cccc(Cl)c3)nc(N[C@@H]3CCCC[C@@H]3N)nc21 | System = TSSK1B (human) | residual activity = ____
Result: 87.4
